- System: TK-10 renal
- run description: NCI tumour cell line growth inhibition, 48 h
Exercise: state measured TGI for each of the compounds provided.

INSERT INTO measurements (compound, tested_target, property_measured, test_value) VALUES
  ('O=C1CSc2cc([N+](=O)[O-])ccc2N1', 'TK-10 renal', 'TGI', '> 100 µM'),
  ('Oc1ccc(Cl)cc1C1=NC(/N=C\c2ccccc2)=NC(c2ccccc2)C1 (stereo not drawn)', 'TK-10 renal', 'TGI', '> 100 µM');

Record `CN(Cc1cc(Cl)c(Cl)cc1NC(=O)CN)[C@H]1CCCC[C@@H]1N1CCCC1` , field TGI: > 100 µM
